Target chain: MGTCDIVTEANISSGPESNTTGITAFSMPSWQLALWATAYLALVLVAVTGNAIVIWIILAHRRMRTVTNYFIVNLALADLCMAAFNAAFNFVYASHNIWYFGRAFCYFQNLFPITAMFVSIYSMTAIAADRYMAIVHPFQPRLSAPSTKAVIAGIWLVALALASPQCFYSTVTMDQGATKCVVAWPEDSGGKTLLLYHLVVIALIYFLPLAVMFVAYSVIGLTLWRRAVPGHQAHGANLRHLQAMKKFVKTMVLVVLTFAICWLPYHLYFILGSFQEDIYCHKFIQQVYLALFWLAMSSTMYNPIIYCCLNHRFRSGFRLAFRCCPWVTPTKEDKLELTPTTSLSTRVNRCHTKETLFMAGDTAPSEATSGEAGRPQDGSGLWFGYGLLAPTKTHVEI
MEASURED ATTRIBUTE: Ki (nM)
Give just the number in nM; leave the unit off.

Exercise: Give its Ki value. Item: CC(C)(C(N)=O)C1CCN(CCC2(c3ccc(Cl)c(Cl)c3)CN(C(=O)Cc3cc(C(F)(F)F)cc(C(F)(F)F)c3)CCO2)CC1 (stereo unspecified)
Key: 24

* * *

Molecular target: UniProt Q64077
Sequence (Q64077 whole entry): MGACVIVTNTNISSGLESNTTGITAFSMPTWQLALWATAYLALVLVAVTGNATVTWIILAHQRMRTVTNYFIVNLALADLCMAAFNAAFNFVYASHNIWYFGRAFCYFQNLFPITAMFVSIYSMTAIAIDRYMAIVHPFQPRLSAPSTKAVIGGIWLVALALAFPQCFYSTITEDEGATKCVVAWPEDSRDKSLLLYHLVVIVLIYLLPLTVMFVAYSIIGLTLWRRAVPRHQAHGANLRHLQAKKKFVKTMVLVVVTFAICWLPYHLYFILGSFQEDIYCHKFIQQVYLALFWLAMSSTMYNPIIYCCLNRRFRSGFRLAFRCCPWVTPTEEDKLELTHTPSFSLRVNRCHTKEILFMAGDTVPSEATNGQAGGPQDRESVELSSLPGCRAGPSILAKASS
MEASURED ATTRIBUTE: Ki (nM)
Give just the number in nM; leave the unit off.

Exercise: Give its Ki value. Item: CC(C)(C(N)=O)C1CCN(CCC2(c3ccc(Cl)c(Cl)c3)CN(C(=O)Cc3cc(C(F)(F)F)cc(C(F)(F)F)c3)CCO2)CC1 (stereo unspecified)
Key: 71
